Origin of the recorded values: paper PMC4434323

- Target entity: F52B5.7 (F52B5.7) (Caenorhabditis elegans) (UniProt Q7YWZ7)
- Sequence: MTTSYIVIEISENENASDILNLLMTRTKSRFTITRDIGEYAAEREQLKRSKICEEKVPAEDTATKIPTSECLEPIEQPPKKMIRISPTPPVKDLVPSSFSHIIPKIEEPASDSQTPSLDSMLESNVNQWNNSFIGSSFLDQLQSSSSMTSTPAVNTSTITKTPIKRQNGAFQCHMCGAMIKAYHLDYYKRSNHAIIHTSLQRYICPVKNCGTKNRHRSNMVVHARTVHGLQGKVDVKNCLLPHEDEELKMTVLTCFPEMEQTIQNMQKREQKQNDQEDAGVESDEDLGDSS
binding signal (PBM E-score (-0.5 to 0.5)) values by entry
Metric name: binding signal (PBM E-score (-0.5 to 0.5))

Ordered residues: ACCCATGG (double strand) [8-mer ACCCATGG]
Target entity: F52B5.7 (F52B5.7) (Caenorhabditis elegans) (UniProt Q7YWZ7)
Reported measurement: 0.485
--
Ordered residues: ATGGGGTA (double strand) [8-mer ATGGGGTA]
Target entity: F52B5.7 (F52B5.7) (Caenorhabditis elegans) (UniProt Q7YWZ7)
Reported measurement: 0.488
--
Ordered residues: ATGGATAC (double strand) [8-mer ATGGATAC]
Target entity: F52B5.7 (F52B5.7) (Caenorhabditis elegans) (UniProt Q7YWZ7)
Reported measurement: 0.485
--
Ordered residues: ATGGGTAC (double strand) [8-mer ATGGGTAC]
Target entity: F52B5.7 (F52B5.7) (Caenorhabditis elegans) (UniProt Q7YWZ7)
Reported measurement: 0.488
